Where do the numbers come from? From ChEMBL document CHEMBL1145023.

Target: Cytochrome P450 2D3 (Rattus norvegicus, UniProt P12938)
Sequence (P12938 whole entry): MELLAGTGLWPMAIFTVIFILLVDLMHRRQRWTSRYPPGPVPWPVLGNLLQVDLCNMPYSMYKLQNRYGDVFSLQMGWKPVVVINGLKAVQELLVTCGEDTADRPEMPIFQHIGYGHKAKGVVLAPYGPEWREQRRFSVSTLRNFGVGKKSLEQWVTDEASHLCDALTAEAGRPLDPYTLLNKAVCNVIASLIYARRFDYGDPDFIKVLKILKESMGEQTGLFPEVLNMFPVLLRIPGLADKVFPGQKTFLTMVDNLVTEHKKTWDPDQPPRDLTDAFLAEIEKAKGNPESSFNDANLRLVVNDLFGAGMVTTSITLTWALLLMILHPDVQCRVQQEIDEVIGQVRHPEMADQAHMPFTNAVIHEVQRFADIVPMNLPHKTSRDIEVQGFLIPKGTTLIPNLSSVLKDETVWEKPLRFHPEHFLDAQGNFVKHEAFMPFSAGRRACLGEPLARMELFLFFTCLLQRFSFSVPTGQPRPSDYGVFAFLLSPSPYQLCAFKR
pIC50: −log10 of the molar value.

Compound: [H]/N=C(/N)N/C(=N/[H])NCCc1ccccc1 [PHENFORMIN]
pIC50: 2.72

Compound: CC(C)NC[C@H](O)COc1cccc2ccccc12 [LEVOPROPRANOLOL]
pIC50: 3.76

Compound: COc1ccc2c(c1)[C@]13CCCC[C@@H]1[C@H](C2)N(C)CC3 [DEXTROMETHORPHAN]
pIC50: 4.73

Compound: CNCCC=C1c2ccccc2CCc2ccccc21 [NORTRIPTYLINE]
pIC50: 4.85

Compound: COc1ccc2c3c1O[C@H]1[C@@H](O)C=C[C@H]4[C@@H](C2)N(C)CC[C@@]341 [CODEINE]
pIC50: 2.39
